target-or-system: GDP-bound KRAS protein (aa 1-169), containing both G12C and C118A amino acid substitutions (Homo sapiens (Human), UniProt P01116, C118A/G12C)
Sequence (P01116 other isoform, or with tags, fused parts or gaps G12C/C118A): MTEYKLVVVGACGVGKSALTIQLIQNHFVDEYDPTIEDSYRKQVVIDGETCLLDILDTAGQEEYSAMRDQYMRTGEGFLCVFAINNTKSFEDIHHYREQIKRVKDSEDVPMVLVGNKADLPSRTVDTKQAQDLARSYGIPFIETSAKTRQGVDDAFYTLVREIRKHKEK
assay-details: Coupled nucleotide exchange assay (SOS-mediated nucleotide exchange, AlphaScreen)
Format: biochemical
condition-info: read-out: Coupled exchange IC50 (5 min; μM); 5 min compound pre-incubation
observation-type: log10(IC50) (log10 of the value in µM)

[[record]]
compound = "C=CC(=O)N1C[C@H](C)N(c2nc(=O)n(-c3c(CC)ccnc3C(C)C)c3nc(-c4ccccc4F)c(Cl)cc23)C[C@H]1C (single isomer, unassigned) [Example 55-58-2]"
reported = -1.04

[[record]]
compound = "C=CC(=O)N1C[C@H](C)N(c2nc(=O)n(-c3c(C(C)C)nc(NC)nc3C(C)C)c3nc(-c4ccccc4F)c(Cl)cc23)C[C@H]1C"
reported = -1.59

[[record]]
compound = "C=CC(=O)N1CCN(c2nc(=O)n(CC(C)(C)C)c3nc(Cl)c(Cl)cc23)CC1"
reported = 1.77

[[record]]
compound = "C=CC(=O)N1CCN(c2nc(=O)n(-c3c(C)ccnc3C(C)C)c3nc(-c4c(N)cccc4F)c(Cl)cc23)C[C@H]1C (atropisomer, axis not shown; (M))"
reported = -1.62

[[record]]
compound = "C=CC(=O)N1C[C@H](C)N(c2nc(=O)n(-c3c(N(CC)CC)ccnc3C(C)C)c3nc(-c4ccccc4C(C)C)c(Cl)cc23)C[C@H]1C (single isomer, unassigned) [Example 103-6-1]"
reported = 0.06


----------
target-or-system: GDP-bound KRAS protein (aa 1-169), containing both G12C and C118A amino acid substitutions (Homo sapiens (Human), UniProt P01116, C118A/G12C)
assay-details: Coupled nucleotide exchange assay (SOS-mediated nucleotide exchange, AlphaScreen)
Format: biochemical
condition-info: read-out: Coupled exchange IC50 (5 min; μM); 5 min compound pre-incubation
observation-type: log10 IC50 (log10 of the value in µM)

[[record]]
molecule = "C=CC(=O)N1C[C@H](C)N(c2nc(=O)n(-c3c(C(C)C)ccnc3C(C)C)c3nc(-c4c(O)cccc4F)c(Cl)cc23)C[C@H]1C (single isomer, unassigned)"
reported = -1.66

[[record]]
molecule = "C=CC(=O)N1C[C@H](C)N(c2nc(=O)n(-c3c(C(C)C)nc(CN4CCC4)nc3C(C)C)c3nc(-c4ccccc4F)c(Cl)cc23)C[C@H]1C"
reported = -0.53

[[record]]
molecule = "C=CC(=O)N1C[C@H](C)N(c2nc(=O)n(-c3c(Cl)ncnc3C(C)C)c3nc(-c4ccccc4C)c(Cl)cc23)C[C@H]1C [Example 102-6]"
reported = -1.18

[[record]]
molecule = "C=CC(=O)N1C[C@H](C)N(c2nc(=O)n(-c3c(C(C)C)nc(Br)nc3C(C)C)c3nc(-c4ccccc4F)c(Cl)cc23)C[C@H]1C"
reported = -1.10

[[record]]
molecule = "C=CC(=O)N1C[C@H](C)N(c2nc(=O)n(-c3c(C)ccnc3C(C)C)c3nc(-c4cncnc4C(C)C)c(Cl)cc23)C[C@H]1C (atropisomer, axis not shown; (M))"
reported = 0.52

[[record]]
molecule = "C=CC(=O)N1C[C@H](C)N(c2nc(=O)n(-c3c(C)ccnc3C(C)C)c3nc(-c4cccc(F)c4N)c(Cl)cc23)C[C@H]1C (atropisomer, axis not shown; (M))"
reported = -1.38

[[record]]
molecule = "C=CC(=O)N1C[C@H](C)N(c2nc(=O)n(-c3c(C(C)C)nc(S(=O)(=O)CCC)nc3C(C)C)c3nc(-c4ccccc4F)c(Cl)cc23)C[C@H]1C"
reported = -0.72

[[record]]
molecule = "C=CC(=O)N1C[C@H](C)N(c2nc(=O)n(-c3c(C)ccnc3C(C)C)c3nc(-c4cccnc4N)c(Cl)cc23)C[C@H]1C (atropisomer, axis not shown; (M))"
reported = -0.70

[[record]]
molecule = "C=CC(=O)N1C[C@H](C)N(c2nc(=O)n(-c3c(CC)ncnc3C(C)C)c3nc(-c4ccccc4F)c(Cl)cc23)C[C@H]1C (single isomer, unassigned) [Example 109-1-1]"
reported = -1.22

[[record]]
molecule = "C=CC(=O)N1C[C@H](C)N(c2nc(=O)n(C)c3nc(-c4ccccc4F)c(Cl)cc23)C[C@H]1C"
reported = 2.24

[[record]]
molecule = "C=CC(=O)N1C[C@H](C)N(c2nc(=O)n(-c3c(C)cc(P(C)(C)=O)cc3C(C)C)c3nc(-c4ccccc4F)c(Cl)cc23)C[C@H]1C (single isomer, unassigned) [Example 102-7-1]"
reported = -0.74

